# credit: paper PMC3140938

Reported RCP (relative corticoid potency) values follow for various molecules
target.entity: human glucocorticoid receptor alpha (hGRα) (Homo sapiens, UniProt P04150)
Sequence (P04150 whole entry): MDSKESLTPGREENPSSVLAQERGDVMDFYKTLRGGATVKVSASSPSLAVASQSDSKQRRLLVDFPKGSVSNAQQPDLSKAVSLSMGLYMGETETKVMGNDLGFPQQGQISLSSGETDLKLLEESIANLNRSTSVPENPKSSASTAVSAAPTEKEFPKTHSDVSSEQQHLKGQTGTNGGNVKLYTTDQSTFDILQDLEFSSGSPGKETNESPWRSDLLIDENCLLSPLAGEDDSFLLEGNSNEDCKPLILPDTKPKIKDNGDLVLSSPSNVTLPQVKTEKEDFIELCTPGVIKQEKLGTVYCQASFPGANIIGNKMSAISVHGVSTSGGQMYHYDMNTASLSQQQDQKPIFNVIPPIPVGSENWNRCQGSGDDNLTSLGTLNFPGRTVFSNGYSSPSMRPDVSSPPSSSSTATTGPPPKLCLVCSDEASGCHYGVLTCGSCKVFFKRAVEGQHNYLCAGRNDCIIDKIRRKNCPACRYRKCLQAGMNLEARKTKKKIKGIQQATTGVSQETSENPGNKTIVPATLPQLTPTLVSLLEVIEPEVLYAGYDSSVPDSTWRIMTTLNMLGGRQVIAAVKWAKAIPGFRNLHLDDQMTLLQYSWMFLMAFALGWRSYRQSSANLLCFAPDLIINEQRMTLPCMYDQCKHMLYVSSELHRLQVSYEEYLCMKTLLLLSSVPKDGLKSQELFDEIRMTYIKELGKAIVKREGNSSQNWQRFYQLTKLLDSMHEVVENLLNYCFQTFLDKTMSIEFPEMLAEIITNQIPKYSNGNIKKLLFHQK
experiment.description: cell-based
Format: cell-based
quantity.kind: RCP (relative corticoid potency)

| molecule | data.value |
| --- | --- |
| C[C@]12CCC(=O)C=C1CC[C@@H]1[C@@H]2C(=O)C[C@@]2(C)[C@H]1CC[C@]2(O)C(=O)CO [Cortisone, cortisone] | 0.0 |
| C[C@]12C[C@H](O)[C@H]3[C@@H](CCC4=CC(=O)CC[C@@]43C)[C@@H]1CC[C@@H]2C(=O)CO [Corticosterone, corticosterone] | 1.7 |
| C[C@]12CC[C@@H]3c4ccc(O)cc4CC[C@H]3[C@@H]1CC[C@@H]2O [17β-Estradiol (E2), 17β-estradiol] | 0.0 |
| C[C@]12CCC(=O)C=C1CC[C@@H]1[C@@H]2[C@@H](O)C[C@]2(C=O)[C@@H](C(=O)CO)CC[C@@H]12 [Aldosterone] | 0.2 |
